Data origin, for the record: paper PMC8667043

# IC50 per entry
- tested target: KDM5B (Homo sapiens, UniProt Q9UGL1)
- Sequence (Q9UGL1 26-101 limits assumed): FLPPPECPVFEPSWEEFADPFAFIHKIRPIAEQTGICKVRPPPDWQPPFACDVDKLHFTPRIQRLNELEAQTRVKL
- Sequence (Q9UGL1 374-770 limits assumed): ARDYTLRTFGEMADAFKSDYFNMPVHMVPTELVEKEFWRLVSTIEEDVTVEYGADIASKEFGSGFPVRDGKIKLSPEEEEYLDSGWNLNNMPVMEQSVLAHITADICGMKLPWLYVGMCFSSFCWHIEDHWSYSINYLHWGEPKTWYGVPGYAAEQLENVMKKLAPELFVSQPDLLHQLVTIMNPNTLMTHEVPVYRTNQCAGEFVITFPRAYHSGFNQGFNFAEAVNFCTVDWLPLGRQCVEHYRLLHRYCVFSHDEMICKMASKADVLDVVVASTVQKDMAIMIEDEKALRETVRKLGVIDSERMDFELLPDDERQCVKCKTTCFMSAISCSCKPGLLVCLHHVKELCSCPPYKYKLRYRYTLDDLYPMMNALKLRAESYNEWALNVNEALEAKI
Numbers only; they are read as µM.

Check out these entries, answers already filled in.
Input line: What does the record list as IC50 for O=C(O)c1cnc(SCCc2ccccc2)[nH]c1=O ?
Output line: 41.4

Input line: Return reported IC50; argument: O=C(O)c1c[nH]c(=S)[nH]c1=O
Output line: 132

Input line: Give the measured IC50 of CSc1ncc(C(=O)O)c(=O)[nH]1 .
Output line: 142

Input line: So what does the record say about IC50 for CCCCCSc1ncc(C(=O)O)c(=O)[nH]1 ?
Output line: 90.8

Input line: // lookup IC50 for O=C(O)/C=C\Sc1ncc(C(=O)O)c(=O)[nH]1
Output line: 67.3

// next entry
Input line: Look up IC50 for this compound: O=C(O)c1cnc(SCCCCc2ccccc2)[nH]c1=O
Output line: 68.2
